# assay.notes: yeast display, Sf9 membrane polyspecificity reagent, FACS + sequencing; frameworks hold sequencing errors
endpoint.name: polyreactivity (PSR sort gate)

The cases that follow already have their polyreactivity (PSR sort gate) on record.
- seq.string: "QVQLVESGGGLVQAGGSLRLSCAASGFTFYGYAMGWYRQAPGKERELVAAISSSGTSTYYADSVKGRFTISRDNEKNTVYLQMNSLKPEDTAVYYCAKDFYRRYYSWGQGTQVTVSS"
  polyreactivity (PSR sort gate): "high polyreactivity"
- seq.string: "QVQLVESGGGLVQAGRSLRLSCAASGRIFRYNTMGWYRQAPGKERELVARINRGGSTNYADSVKGRFTISRDNAKNTVYLQMNSLKAEDTAVYYCNARYTARHYPFSNFDYWGQGTQVTVSS"
  polyreactivity (PSR sort gate): "high polyreactivity"
- seq.string: "QVQLVESGGGLVQAGGSLRLSCAASGRTFAYYVMGWDRQAPGKERELVAAISWSAGSTYYADSVKGRFTISRDNAKNTVYLQMNSLKPEDTAVYYCAADYRFRYEYWGQGTQVTVSS"
  polyreactivity (PSR sort gate): "low polyreactivity"
- seq.string: "QVQLVESGGGLVQAGGSLRLSCAASGGIFTAYTIGWYRQAPGKERELVATITRGGSTNYADSVKGRFTISRDNAMNTVYLQMNSLKPEDTAVYYCNARVQRRGVQYYYWGHGTQVTVSS"
  polyreactivity (PSR sort gate): "high polyreactivity"
- seq.string: "QVQLVESGGGLVQAGGSLRLSCAASGRTYRWYVMGWYIQAPGTERELVAAISQSGGSTYYADSVKGRFTISRDNAMNTVYLEMYSLKPEDTAVYYCNAYPRYGGYAYGRGDYWGQGTQVTVSS"
  polyreactivity (PSR sort gate): "high polyreactivity"

stdin: Which polyreactivity (PSR sort gate) is reported for this sequence? "QVQLVESGGGLVQAGGSLRLSCAASGRIFTYNAMGWYIQAPGKERELVAAISSSVGSTYYADSVKGRFTISRDNAKNTVYLQMNSLKPEDTAVYYCAAYSYRNLRFYYWGQGTQVTVSS"
stdout: high polyreactivity

stdin: I am curious: what polyreactivity (PSR sort gate) value has been reported for "QVQLVESGGGLVQAGGSLRLSCAASGSTSGIYAMGWSRQAPGKERELVAAIDTSGGSTYADSVKGRFTISRDNAKNTVYLQMNSLKPEATAVYYCARTWGLRYRWSYGRSRYNFWGQGTQVTVSS" ?
stdout: low polyreactivity

stdin: Tell me the measured polyreactivity (PSR sort gate) of "QVHLVESGRGLLQAGGSLRLSCAPSGRTFGVYSMGWYSQAPGKERELVAAISWSGDRTYYADSVKGRFTISRDYAKNTVYLQMNSLKPEDPALDYAEYHGAKYDYWGQGTQVTVSS" , please.
stdout: high polyreactivity

stdin: # get_value(readout='polyreactivity (PSR sort gate)', item= "QVQLVESGGGLVQAGGSLRLICAASGFTFRVYSMGWYRQAPGKEREFVASISWTGDTTYYADSVKGRFTISRDNAKNTVYLQMNSLKPEDTEVYYCAVDTILGYDYWGQVTQVTVSS" )
stdout: low polyreactivity

stdin: Give the measured polyreactivity (PSR sort gate) of "QVQLVESGGGLVQAGGSLRLSCAASGRTFAINAMGWSRQAPGKEWELVASIRWTDGTTYYADSVKGRFTISRDNAKNTVYLQMNSLKPEDTAVYYCAADAEGSASKYDYWGQGTQVTVSS" .
stdout: low polyreactivity

stdin: Bench note: what polyreactivity (PSR sort gate) did "QVQLVESGGGLVQAGGSLRLSCAASGRIFTGYDMGWYRQAPGKERELVAAISRGGSTNYADSVKGRFTISRDNAKNTVYLQMNSLKPEDTAVYYCADGVHWDRGDYWVQGTQVTVSS" show?
stdout: low polyreactivity
